target: NHERF2_2, Q15599; experiment: holdup assay; parameters: key: below the threshold = too weak to quantify, mostly under pKd 3.1 to 4; conditions: plain residues with an end cap or a label only (N-terminal biotin on a linker: ttds)
Sequence (Q15599 142-238): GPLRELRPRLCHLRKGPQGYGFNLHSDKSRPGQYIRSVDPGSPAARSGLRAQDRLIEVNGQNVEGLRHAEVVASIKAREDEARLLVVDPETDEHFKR
Hi there, I'd appreciate the recorded pKd for every entry that follows.
Please state the value as a number alone, without comment.

Tell me the measured pKd of QSARYRDTEL [TJP2, Q9UDY2] , please.
4.12

Tell me the measured pKd of GQDSREETQL [KCNT2, Q6UVM3] , please.
5.17

Tell me the measured pKd of SVWLRKETRV [CYSLTR2, Q9NS75] , please.
3.78

Tell me the measured pKd of TVASEKESVM [SLC1A5, Q15758] , please.
3.51

Tell me the measured pKd of RSLEEEESQL [GRASP, Q7Z6J2] , please.
5.07

Tell me the measured pKd of IYVPEAQTRL [DLGAP4, Q9Y2H0] , please.
4.84

Tell me the measured pKd of VLRLQSETSV [VANGL1, Q8TAA9] , please.
3.75

Tell me the measured pKd of STLTIFETAL [ABCC4, O15439] , please.
5.07

Tell me the measured pKd of IDNDTESTAL [ARHGAP17, Q68EM7] , please.
5.24

Tell me the measured pKd of SSRTRRETQL [HPV16-E6, P03126] , please.
4.19
